- TARGET OR TEST SYSTEM: T1, IL10Rα and IL2Rγ on human primary cells (CD8 T cells, CD4 T cells, monocytes) (human) (UniProt Q13651)
- T1 sequence (looked up) 1: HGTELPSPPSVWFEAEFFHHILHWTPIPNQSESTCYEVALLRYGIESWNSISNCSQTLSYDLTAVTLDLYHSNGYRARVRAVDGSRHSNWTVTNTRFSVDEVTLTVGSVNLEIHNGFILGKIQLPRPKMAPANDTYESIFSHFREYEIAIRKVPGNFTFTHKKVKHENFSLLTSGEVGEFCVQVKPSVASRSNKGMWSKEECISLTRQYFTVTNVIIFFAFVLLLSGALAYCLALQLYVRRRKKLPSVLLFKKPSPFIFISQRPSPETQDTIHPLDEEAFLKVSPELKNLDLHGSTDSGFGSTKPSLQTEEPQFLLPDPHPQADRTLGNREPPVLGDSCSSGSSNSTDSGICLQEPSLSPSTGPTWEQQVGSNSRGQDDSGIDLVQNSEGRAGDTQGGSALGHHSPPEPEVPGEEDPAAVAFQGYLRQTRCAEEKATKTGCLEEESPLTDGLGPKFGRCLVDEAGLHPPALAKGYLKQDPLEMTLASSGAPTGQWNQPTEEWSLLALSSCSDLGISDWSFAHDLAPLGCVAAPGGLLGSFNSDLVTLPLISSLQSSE
- T1 sequence (looked up) 2: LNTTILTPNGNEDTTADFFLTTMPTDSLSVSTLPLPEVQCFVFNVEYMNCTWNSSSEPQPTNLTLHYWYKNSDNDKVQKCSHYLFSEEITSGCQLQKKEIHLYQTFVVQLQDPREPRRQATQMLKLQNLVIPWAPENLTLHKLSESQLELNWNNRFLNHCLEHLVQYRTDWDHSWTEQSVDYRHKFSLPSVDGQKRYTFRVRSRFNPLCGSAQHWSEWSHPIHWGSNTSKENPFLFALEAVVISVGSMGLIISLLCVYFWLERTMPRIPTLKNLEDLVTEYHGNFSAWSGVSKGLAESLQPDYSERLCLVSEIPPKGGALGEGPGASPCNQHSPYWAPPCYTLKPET
- ASSAY NOTES: cell-based or functional assay
MEASURED ATTRIBUTE: pSTAT3 (MFI) in CD8 T cells at 0.001 µM

[[record]]
binder = "hIL10Ra_VHH14-hIL2Rg_VHH19, linker GGGS, tag his (bispecific antibody, not shown: small tags and cut ends) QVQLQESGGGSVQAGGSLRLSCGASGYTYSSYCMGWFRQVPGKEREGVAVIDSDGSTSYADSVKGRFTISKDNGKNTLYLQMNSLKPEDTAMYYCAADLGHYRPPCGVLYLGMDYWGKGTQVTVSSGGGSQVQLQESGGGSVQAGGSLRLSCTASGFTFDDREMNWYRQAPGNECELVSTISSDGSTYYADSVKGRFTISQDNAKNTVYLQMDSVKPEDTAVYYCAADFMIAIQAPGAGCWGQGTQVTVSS"
measured_attribute = "pSTAT3 (MFI) in CD8 T cells at 0.001 µM"
observed_result = 7460

